target: cAMP and cAMP-inhibited cGMP 3',5'-cyclic phosphodiesterase 10A (Homo sapiens, UniProt Q9Y233); experiment: Inhibition of recombinant human PDE10A using [3H]cAMP as substrate by scintillation proximity assay
Sequence (Q9Y233 whole entry): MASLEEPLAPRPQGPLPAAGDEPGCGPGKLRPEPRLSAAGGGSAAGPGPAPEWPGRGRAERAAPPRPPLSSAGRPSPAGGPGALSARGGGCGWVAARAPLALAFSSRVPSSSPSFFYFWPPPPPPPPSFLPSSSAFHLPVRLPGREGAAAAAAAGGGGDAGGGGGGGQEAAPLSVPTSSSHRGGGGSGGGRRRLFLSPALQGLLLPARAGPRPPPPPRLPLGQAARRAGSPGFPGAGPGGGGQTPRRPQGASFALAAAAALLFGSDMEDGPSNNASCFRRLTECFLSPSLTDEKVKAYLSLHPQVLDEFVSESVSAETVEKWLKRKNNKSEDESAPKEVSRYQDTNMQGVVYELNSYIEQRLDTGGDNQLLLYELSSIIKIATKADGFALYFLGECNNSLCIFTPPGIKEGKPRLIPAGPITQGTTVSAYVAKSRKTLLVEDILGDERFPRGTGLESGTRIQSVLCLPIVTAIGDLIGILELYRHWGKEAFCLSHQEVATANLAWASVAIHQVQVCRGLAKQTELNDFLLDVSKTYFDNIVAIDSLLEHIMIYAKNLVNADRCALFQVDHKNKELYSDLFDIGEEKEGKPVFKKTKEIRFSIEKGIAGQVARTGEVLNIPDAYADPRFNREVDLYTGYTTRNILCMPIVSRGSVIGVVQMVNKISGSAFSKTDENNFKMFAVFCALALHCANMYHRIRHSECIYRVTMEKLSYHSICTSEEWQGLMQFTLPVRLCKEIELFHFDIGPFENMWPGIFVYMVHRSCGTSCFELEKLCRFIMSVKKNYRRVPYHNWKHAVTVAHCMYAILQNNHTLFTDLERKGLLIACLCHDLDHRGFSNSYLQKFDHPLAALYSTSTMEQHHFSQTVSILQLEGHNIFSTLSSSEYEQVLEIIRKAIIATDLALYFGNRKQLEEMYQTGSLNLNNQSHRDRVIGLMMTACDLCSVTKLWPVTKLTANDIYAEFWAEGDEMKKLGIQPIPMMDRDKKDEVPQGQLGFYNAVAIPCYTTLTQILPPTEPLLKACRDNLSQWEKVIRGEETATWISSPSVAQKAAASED
Endpoint: log10 of Ki (log10 of the value in nM)

Compound	Observed
COc1cc(C)c2nc3[nH]nc(C)c3c(N3CCCC(CO)C3)c2c1 (racemic)	1.46
COc1ccc2nc3[nH]nc(C)c3c(N3CCNCC3)c2c1	2.77
COc1cc(C)c2nc3[nH]nc(C)c3c(NC3CCNCC3)c2c1	1.74
COc1cc(C)c2nc3[nH]nc(C)c3c(N3CCCCC3)c2c1	2.56
COc1cc(C)c2nc3[nH]nc(C)c3c(NCC3CN(C)CCO3)c2c1 (stereo unspecified)	2.45
COc1cc(C)c2nc3[nH]nc(C)c3c(N3CCSCC3)c2c1	2.29
COc1cc(C)c2nc3[nH]nc(C)c3c(NCC3CNCCO3)c2c1 (stereo unspecified)	0.70
COc1cc(C)c2nc3[nH]nc(C)c3c(N(C)C3CCOCC3)c2c1	1.61
COc1cc(C)c2nc3[nH]nc(C)c3c(N3CCCNCC3)c2c1	1.18
COc1cc(C)c2nc3[nH]nc(C)c3c(N3CCN(C(N)=O)[C@@H](C)C3)c2c1	0.52
COc1cc(C)c2nc3[nH]nc(C)c3c(NCC3CCOCC3)c2c1	1.72
